Reported values of PBM binding z-score for individual entries
Tested on: PPARa:RXRa (NR concentration 270 nM, RXRa partner concentration 90 nM)
test.summary: PBM binding z-score (relative to random genomic background probes); higher = stronger binding; sequences stand for … in GC…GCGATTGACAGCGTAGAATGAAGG

- chain.sequence: "CGCCCAAGGTCATAGGAGGTCAGTGAAGACAGAT"
  PBM binding z-score: 5.8
- chain.sequence: "GCTATTAGTTGAAAGGGCAACCGCATGATTCTCG"
  PBM binding z-score: 2.31
- chain.sequence: "CGAACTAGGTCATCCAGGAAAGTGAATACATTGA"
  PBM binding z-score: 5.01
- chain.sequence: "CTCGAAAGGTCGGTTGAGGAGAGTATACGGATAA"
  PBM binding z-score: 2.25
- chain.sequence: "ACTAACAGGCCAAGTTTGGGTCACTCAAACAAAG"
  PBM binding z-score: 1.45
- chain.sequence: "ATCGAAAGGTCGTGAGGTTAGTATACAGAAAGGC"
  PBM binding z-score: 5.04

----------
Entries and their measured PBM binding z-score follow.
Tested on: RARg:RXRa (NR concentration 270 nM, RXRa partner concentration 90 nM)
test.summary: PBM binding z-score (relative to random genomic background probes); higher = stronger binding; sequences stand for … in GC…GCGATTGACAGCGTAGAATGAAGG

- chain.sequence: "TCAGACAGGTGACGGTAACTCAGGTACGCAGTCG"
  PBM binding z-score: 0.188
- chain.sequence: "GCGACTGGGGCATCAGCAGGTTTCCATAACTTAA"
  PBM binding z-score: -0.102
- chain.sequence: "CAAACTAGGTCTCGAAAGGTCAAAGTCGAATGAC"
  PBM binding z-score: 5.71
- chain.sequence: "CGAACTAGGTCAGACCAGGACAGTGAAGGATGAT"
  PBM binding z-score: 2.82
- chain.sequence: "TCGAGTAGGTTGGTCGGGGCATTCAGCCAACATA"
  PBM binding z-score: -0.467
- chain.sequence: "TCCTATAGGTAAATGCTAGGTGAAAGTCCGATCT"
  PBM binding z-score: 0.374
- chain.sequence: "CCGACTGGGGCATAAGGGTACCATAAGCCAGCCC"
  PBM binding z-score: 0.401
- chain.sequence: "TCATATAGGGAAACAGGTGAAAGTCCGTAAGTTA"
  PBM binding z-score: 0.344
- chain.sequence: "TAGCATAGGTCATTCAGGGGCCAGTATAGAAAGC"
  PBM binding z-score: 7.38
- chain.sequence: "CAGCCTAAGTCAGGGCCAGTATAGGAGGAACGTT"
  PBM binding z-score: -0.148
- chain.sequence: "ACTAGCAGCCCAAGGGTCACTCAAGATTAGTCCG"
  PBM binding z-score: 3.55
- chain.sequence: "GCAGACAGGTGAAACGCAGGTAAGTCAGGGTGGC"
  PBM binding z-score: 0.37
- chain.sequence: "CCTACTGGGCCAAACAGGTCATTGATGCCGATAA"
  PBM binding z-score: 1.56
- chain.sequence: "ATACCACGGTGATCGTGAGGTCGTTGATACTAAC"
  PBM binding z-score: 0.858
- chain.sequence: "CCTTACGGGTCACTGACAGGTTATAGAATTTGGA"
  PBM binding z-score: 5.81
- chain.sequence: "CCGAGCAGGTTATGGGGCATTCAGGCAACGGTGA"
  PBM binding z-score: 0.387
- chain.sequence: "CCTTACGGGTCACGAGGTTTTAGCACGACGAGCG"
  PBM binding z-score: 5.63
- chain.sequence: "CCTACTGAGCCAAGGTCATTGATCAGTCAAAGCA"
  PBM binding z-score: 3.7
- chain.sequence: "TCAAGTAGGTTAGGGGCATTCAGAATGGCGTCGA"
  PBM binding z-score: 0.789
- chain.sequence: "TAGCCTAGGTCAGCTCGGGCCAGTATACGCTATA"
  PBM binding z-score: 3.06
- chain.sequence: "CCTACTGAGCCATCAGGTCATTGATATCAACGTT"
  PBM binding z-score: 1.5
- chain.sequence: "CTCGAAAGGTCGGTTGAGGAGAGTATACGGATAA"
  PBM binding z-score: 2.45
- chain.sequence: "CGTGCAAGGTCAGCAGGTCAGTGAAAGCGACGTG"
  PBM binding z-score: 6.54
- chain.sequence: "TGTCAAAGTTAAAAGGTAACGTAAGTATCCACAC"
  PBM binding z-score: 1.31
- chain.sequence: "TCATATAGATAATACAGGTGAAAGTCGGCATCTA"
  PBM binding z-score: 0.456
- chain.sequence: "CCTCCAAGGTCAAGGTCAGTGAAAGAGACTCGAA"
  PBM binding z-score: 6.52
